# Assay target: T1, Twinkle NTD (Homo sapiens, UniProt Q96RR1 43-372)
# T1 sequence: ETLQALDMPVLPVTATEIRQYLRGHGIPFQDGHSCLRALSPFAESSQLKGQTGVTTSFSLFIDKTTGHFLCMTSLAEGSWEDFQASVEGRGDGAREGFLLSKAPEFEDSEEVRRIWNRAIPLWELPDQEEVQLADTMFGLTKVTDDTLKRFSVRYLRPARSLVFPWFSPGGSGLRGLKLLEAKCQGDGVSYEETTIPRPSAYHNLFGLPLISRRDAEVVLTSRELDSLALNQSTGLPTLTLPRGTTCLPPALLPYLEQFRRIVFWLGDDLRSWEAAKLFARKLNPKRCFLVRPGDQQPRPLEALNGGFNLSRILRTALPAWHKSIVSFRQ
# Method summary: fluorescence anisotropy; no NaCl added; weak phase of two-site fit; 50 mM Tris acetate pH 7.5, 10% glycerol, 0.05% Tween-20, 0.5 mM DTT, 0 or 50 mM NaCl; 2.5 nM DNA; no Mg2+ or nucleotide listed; temperature not stated
# Run parameters: protein: recombinant; tags: SUMO tag removed (ULP1); label: 3' fluorescein-T; single strand
Reported endpoint: Kd
Provide the measurement as a number trailed by its unit.

Please give Kd for each item listed below.
1. TGTGTTAGTTGGGGGGTGACTGTTAAAAGT (ssDNA) [30 nt ssDNA]
2. TGCTATAACTCTTGAACACT (ssDNA) [20 nt ssDNA]

// result
1: 730 nM; 2: 1200 nM
